Target: T1, human CXCR5 (human, UniProt P32302 1-372)
T1 construct: whole, on cells; Always presented on cells; one entry is used for all cell lines; also called hCXCR5; C-X-C chemokine receptor type 5
T1 sequence (looked up): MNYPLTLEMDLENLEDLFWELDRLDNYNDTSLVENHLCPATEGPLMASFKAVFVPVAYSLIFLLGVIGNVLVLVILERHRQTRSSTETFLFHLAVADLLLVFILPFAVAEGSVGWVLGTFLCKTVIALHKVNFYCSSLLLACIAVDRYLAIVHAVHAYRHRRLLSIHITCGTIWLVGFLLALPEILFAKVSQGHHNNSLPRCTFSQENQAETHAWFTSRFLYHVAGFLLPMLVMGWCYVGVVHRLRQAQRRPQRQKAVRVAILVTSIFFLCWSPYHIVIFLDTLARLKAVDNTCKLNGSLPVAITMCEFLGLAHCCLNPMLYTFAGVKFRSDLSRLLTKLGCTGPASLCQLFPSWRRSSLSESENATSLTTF
Assay: binding to DX002 cells expressing CXCR5

- binder: "HFB2-4hz39hG1DE (antibody, V domains shown, Humanized (VH6/VL6) in hG1DE format) VH: QVQLQESGPGLVKPSGTLSLTCAVSGFSLTSYGVSWVRQPPGKGLEWIGVIWGDGSTNYNPSLKSRLTISKDKSKNQVSLKLSSVTAADTAVYYCARVVYWGQGTLVTVSS VL: EIVMTQSPATLSVSPGERATLSCRSSKSLLHSNGKTYLYWFQQKPGQAPRLLIYRMSNLASGIPARFSGSGSGTEFTLTISSVQSEDVAVYYCMQHLEYPYTFGQGTKLEIK"
  EC50: "0.26 nM"
